Tested on: A549 cells
Experiment: In vitro cell proliferation / combination assay (MTT), A549
Format: cell-based
Details: Homo sapiens; A549, Lung, Ras G12S; compound alone; read-out: Compound No. 2-4 (comp. (A)) EC50
measure: EC50 (nM)
Record the value in nM, omitting the unit from your answer.

Which value of EC50 has been reported for CS(=O)(=O)N1CCN(Cc2nc3c(N4CCOCC4)nc(-c4cnc(N)nc4)c(Cl)n3n2)CC1 in the records?
1000

====

Test system: SKVO3 cells
Test: In vitro cell proliferation / combination assay (MTT), SKVO3
Format: cell-based
Conditions: SKVO3, Ovarian, PIK3CA, p53; compound alone; read-out: Compound No. 2-4 (comp. (A)) EC50
measure: pEC50
pEC50 (log units): -log10 of the concentration in mol/L.

Which value of pEC50 has been reported for CS(=O)(=O)N1CCN(Cc2nc3c(N4CCOCC4)nc(-c4cnc(N)nc4)c(Cl)n3n2)CC1 [Compound 2-4] in the records?
6.00

====

Quick list: IC50 per entry.
Molecular target: PI3K (p110α/p85α) (Homo sapiens, UniProt P42336)
Construct: purchased Carna Biosciences 07CBS-0402A
Sequence (P42336 whole entry): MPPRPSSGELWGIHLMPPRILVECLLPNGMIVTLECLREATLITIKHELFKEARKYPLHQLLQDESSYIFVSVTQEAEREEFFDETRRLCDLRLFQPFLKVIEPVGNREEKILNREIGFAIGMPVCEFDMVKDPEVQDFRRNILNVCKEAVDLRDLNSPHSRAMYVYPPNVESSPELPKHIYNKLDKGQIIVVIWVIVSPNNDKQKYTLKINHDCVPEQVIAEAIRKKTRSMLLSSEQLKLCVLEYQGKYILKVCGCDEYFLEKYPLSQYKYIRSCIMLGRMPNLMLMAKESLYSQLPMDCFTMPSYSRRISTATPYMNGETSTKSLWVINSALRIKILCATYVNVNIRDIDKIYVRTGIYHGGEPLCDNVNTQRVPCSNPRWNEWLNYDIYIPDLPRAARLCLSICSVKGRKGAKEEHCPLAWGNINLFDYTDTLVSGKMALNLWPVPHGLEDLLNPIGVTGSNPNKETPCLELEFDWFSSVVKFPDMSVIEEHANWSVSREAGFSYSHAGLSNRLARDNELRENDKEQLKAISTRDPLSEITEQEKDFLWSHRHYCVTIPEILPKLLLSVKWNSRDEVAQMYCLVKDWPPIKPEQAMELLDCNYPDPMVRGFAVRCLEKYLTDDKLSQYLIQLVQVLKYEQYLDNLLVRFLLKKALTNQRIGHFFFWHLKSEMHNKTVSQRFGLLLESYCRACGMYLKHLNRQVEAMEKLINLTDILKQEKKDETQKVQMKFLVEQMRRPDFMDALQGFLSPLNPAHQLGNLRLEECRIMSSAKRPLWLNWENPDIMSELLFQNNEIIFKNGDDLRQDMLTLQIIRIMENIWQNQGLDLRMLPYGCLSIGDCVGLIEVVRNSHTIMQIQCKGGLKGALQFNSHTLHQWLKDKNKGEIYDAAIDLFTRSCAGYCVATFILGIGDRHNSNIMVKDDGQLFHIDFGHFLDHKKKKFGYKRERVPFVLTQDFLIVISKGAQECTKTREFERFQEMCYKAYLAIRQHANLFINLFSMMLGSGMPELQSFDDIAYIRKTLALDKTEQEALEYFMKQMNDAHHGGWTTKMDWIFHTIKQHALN
Sequence (P27986 whole entry partner): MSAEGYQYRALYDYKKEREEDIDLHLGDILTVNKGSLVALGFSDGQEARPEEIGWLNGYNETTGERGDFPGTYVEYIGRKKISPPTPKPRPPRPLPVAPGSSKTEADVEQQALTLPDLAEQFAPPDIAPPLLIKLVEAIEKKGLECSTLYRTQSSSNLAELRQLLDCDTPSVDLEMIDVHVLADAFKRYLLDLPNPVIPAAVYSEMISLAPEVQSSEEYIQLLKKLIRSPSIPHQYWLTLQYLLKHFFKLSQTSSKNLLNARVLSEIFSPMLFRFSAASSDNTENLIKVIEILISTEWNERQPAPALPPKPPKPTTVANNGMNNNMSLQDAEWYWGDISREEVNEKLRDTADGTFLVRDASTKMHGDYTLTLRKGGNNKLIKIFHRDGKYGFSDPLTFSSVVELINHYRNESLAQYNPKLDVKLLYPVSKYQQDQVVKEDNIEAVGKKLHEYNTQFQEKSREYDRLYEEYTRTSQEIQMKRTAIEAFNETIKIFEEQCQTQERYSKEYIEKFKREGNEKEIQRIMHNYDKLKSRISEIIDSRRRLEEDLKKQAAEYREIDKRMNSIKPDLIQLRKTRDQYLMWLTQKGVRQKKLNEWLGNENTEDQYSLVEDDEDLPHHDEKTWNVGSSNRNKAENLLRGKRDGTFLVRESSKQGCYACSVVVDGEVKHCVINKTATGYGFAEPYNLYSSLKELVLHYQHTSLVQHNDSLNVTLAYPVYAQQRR
Experiment: PI3K activity assay (ADP Hunter Plus)
Type: biochemical
Settings: Table 3; read-out: PI3Kα
Method: The kinase activity was measured by using the commercial ADP Hunter™ Plus assay available from DiscoveRx (#33-016), which is a homogeneous assay to measure the accumulation of ADP, a universal product of kinase activity. […] Fluorescence counts were read in a Victor instrument (Perkin Elmer) with the recommended settings (544 and 580 nm as excitation and emission wavelengths, respectively). […]

Example entries begin here.
CS(=O)(=O)N1CCN(Cc2nc3c(N4CCOCC4)nc(-c4cnc(N)nc4)c(Cl)n3n2)CC1 [Compound 2-4] = 1.4 nM
CS(=O)(=O)N1CCN(Cc2nc3c(N4CCOCC4)nc(-c4cccc5[nH]ncc45)cn3n2)CC1 [Compound 2-2] = 128 nM

Which value of IC50 has been reported for CS(=O)(=O)N1CCN(Cc2nc3c(N4CCOCC4)nc(-c4cnc(N)nc4)cn3n2)CC1 [Compound 2-3] in the records?
3 nM

====

Molecular target: PI3K (p110α/p85α) (Homo sapiens, UniProt P42336)
Construct: purchased Carna Biosciences 07CBS-0402A
Test: PI3K activity assay (ADP Hunter Plus)
Format: biochemical
Conditions: read-out: IC50 PI3Kα
Quick list: log10(IC50) per entry.
// do not treat as linear: log10 of IC50, unit nM

Example entries begin here.
Nc1ncc(-c2cn3nc(CN4CCOCC4)cc3c(N3CCOCC3)n2)cn1 [Compound 3-17] = 1.90
CS(=O)(=O)N1CCCN(Cc2cc3c(N4CCOCC4)nc(-c4cnc(N)nc4)cn3n2)CC1 [Compound 3-16] = 1.11
CC(C)S(=O)(=O)N1CCN(Cc2cc3c(N4CCOCC4)nc(-c4cnc(N)nc4)cn3n2)CC1 [Compound 3-18] = 0.78

Which value of log10(IC50) has been reported for COCCN(C)Cc1cc2c(N3CCOCC3)nc(-c3cnc(N)nc3)cn2n1 [Compound 3-14] in the records?
2.03

Which value of log10(IC50) has been reported for CS(=O)(=O)N1CCC(NCc2cc3c(N4CCOCC4)nc(-c4cnc(N)nc4)cn3n2)CC1 [Compound 3-13] in the records?
1.76
